- Target system: Orexin receptor type 2 (Homo sapiens, UniProt O43614)
- Sequence (O43614 whole entry): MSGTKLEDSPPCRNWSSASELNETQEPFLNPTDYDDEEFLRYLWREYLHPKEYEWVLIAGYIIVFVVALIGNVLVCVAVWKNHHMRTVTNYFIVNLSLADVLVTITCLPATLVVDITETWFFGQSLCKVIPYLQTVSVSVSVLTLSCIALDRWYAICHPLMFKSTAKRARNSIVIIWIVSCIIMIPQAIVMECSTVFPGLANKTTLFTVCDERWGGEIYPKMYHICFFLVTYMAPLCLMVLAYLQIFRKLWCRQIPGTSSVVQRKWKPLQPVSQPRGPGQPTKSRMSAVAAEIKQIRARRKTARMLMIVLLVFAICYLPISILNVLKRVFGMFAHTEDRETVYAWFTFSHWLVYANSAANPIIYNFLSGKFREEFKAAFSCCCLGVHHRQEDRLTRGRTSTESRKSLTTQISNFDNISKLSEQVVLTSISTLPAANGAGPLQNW
- Assay summary: Antagonist activity against human orexin 2 receptor expressed in CHO cells assessed as effect in calcium mobilization by FLIPR assay
pKi: −log10 of the molar value.
Quantity: pKi

Cc1occc1-c1nnc(SCC(=O)Nc2nccs2)n1Cc1ccco1	6.00
Cc1occc1-c1nnc(SCC(=O)Nc2ccc(Cl)cc2)n1Cc1ccco1	7.00
Cc1occc1-c1nnc(SCC(=O)Nc2ccc(F)cc2)n1Cc1ccco1	6.80

1. COc1ccc(NC(=O)CSc2nnc(-c3ccoc3C)n2Cc2ccco2)cc1
2. Cc1occc1-c1nnc(SCC(=O)NCCc2ccccc2)n1Cc1ccco1
3. Cc1occc1-c1nnc(SCC(=O)NN2CCc3ccccc32)n1Cc1ccco1
4. Cc1cc(C)cc(N(C(=O)CSc2nnc(-c3ccoc3C)n2Cc2ccco2)C2CNCCN2)c1 (stereo not given)
5. Cc1ccc(NC(=O)CSc2nnc(-c3ccoc3C)n2Cc2ccco2)cc1C
-- ask Could you please sort these 5 entries by pKi from high to low? Provide the labels, sequenced as the question asks.
-- reply 5, 1, 4, 3, 2
(5: 8.60, 1: 6.70, 4: 6.20, 3: 6.00, 2: 5.80)

====

- Target system: Cytochrome P450 3A4 (Homo sapiens, UniProt P08684)
- Sequence (P08684 whole entry): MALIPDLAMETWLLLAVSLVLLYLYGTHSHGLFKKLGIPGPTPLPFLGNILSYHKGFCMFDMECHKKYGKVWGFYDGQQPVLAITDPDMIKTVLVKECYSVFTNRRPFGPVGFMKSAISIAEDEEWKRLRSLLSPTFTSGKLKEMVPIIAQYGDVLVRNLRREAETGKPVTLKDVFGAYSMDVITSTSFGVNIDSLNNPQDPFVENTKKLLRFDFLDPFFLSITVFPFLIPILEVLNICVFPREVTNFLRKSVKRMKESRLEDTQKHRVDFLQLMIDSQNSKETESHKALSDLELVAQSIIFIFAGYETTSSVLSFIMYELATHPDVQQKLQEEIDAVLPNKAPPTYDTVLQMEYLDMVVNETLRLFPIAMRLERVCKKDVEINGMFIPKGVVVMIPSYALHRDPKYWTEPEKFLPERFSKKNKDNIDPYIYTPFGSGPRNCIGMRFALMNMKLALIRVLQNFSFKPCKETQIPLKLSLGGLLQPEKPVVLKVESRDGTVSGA
- Assay summary: Inhibition of CYP3A4 by CYPEX bactosome P450 inhibition assay
- Type: ADME
Quantity: IC50

-- ask Bench note: what IC50 did Cc1cc(C)cc(NC(=O)CSc2nnc(-c3ccoc3C)n2Cc2ccco2)c1 show?
-- reply > 5 µM

====

- Target system: Cytochrome P450 2C9 (Homo sapiens)
- Sequence (P11712 whole entry): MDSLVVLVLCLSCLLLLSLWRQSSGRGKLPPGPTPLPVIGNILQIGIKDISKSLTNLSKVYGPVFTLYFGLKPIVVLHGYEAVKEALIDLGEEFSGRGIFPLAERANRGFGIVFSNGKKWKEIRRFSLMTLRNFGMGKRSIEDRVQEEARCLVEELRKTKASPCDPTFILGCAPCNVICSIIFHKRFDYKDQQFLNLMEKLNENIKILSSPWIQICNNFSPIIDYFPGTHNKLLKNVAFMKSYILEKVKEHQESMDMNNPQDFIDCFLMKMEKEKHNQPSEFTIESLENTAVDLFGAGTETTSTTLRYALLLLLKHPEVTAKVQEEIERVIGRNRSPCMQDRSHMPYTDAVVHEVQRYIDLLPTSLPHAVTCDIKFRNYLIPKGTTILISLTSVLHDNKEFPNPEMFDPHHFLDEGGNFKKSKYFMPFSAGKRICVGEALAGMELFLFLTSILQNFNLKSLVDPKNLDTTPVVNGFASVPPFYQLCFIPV
- Assay summary: Inhibition of CYP2C9 by CYPEX bactosome P450 inhibition assay
- Type: ADME
Quantity: IC50

-- ask Bench note: what IC50 did Cc1cc(C)cc(NC(=O)CSc2nnc(-c3ccoc3C)n2Cc2ccco2)c1 show?
-- reply > 5 µM

====

- Target system: Orexin/Hypocretin receptor type 1 (Homo sapiens)
- Sequence (O43613 whole entry): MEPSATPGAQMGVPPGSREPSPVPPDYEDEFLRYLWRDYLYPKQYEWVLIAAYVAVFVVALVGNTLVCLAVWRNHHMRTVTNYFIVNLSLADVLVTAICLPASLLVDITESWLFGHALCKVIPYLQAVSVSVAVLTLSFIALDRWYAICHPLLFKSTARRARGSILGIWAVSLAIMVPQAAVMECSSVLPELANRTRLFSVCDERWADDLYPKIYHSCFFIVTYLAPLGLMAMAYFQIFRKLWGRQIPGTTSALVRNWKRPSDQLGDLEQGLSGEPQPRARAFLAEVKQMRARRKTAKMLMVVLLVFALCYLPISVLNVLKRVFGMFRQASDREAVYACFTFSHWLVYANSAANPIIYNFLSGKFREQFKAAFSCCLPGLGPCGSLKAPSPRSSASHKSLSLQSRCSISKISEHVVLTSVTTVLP
- Assay summary: Antagonist activity against human orexin 1 receptor expressed in CHO cells assessed as effect in calcium mobilization by FLIPR assay
Quantity: Ki

Cc1ccc(NC(=O)CSc2nnc(-c3ccoc3C)n2Cc2ccco2)cc1	> 15.8 µM
Cc1occc1-c1nnc(SCC(N)=O)n1Cc1ccco1	> 15.8 µM
Cc1ccc(NC(=O)CSc2nnc(-c3ccoc3C)n2Cc2ccco2)cc1C	0.631 µM
CC(=O)c1cccc(NC(=O)CSc2nnc(-c3ccoc3C)n2Cc2ccco2)c1	3.16 µM
Cc1cccc(NC(=O)CSc2nnc(-c3ccoc3C)n2Cc2ccco2)c1	2.51 µM

-- ask Bench note: what Ki did Cc1occc1-c1nnc(SCC(=O)Nc2cccc(-c3ccc4c(c3)OCO4)c2)n1Cc1ccco1 show?
-- reply > 15.8 µM

-- ask Bench note: what Ki did CC(=O)c1ccc(NC(=O)CSc2nnc(-c3ccoc3C)n2Cc2ccco2)cc1 show?
-- reply 2.51 µM

-- ask Bench note: what Ki did Cc1nc(C(=O)N2CCCC[C@H]2CNC(=O)c2cccc3occc23)c(-c2ccc(F)cc2)s1 show?
-- reply 0.000316 µM

-- ask Bench note: what Ki did Cc1csc(NC(=O)CSc2nnc(-c3ccoc3C)n2Cc2ccco2)n1 show?
-- reply > 15.8 µM

-- ask Bench note: what Ki did Cc1occc1-c1nnc(SCC(=O)Nc2ccc(F)cc2)n1Cc1ccco1 show?
-- reply > 15.8 µM

-- ask Bench note: what Ki did Cc1occc1-c1nnc(SCC(=O)Nc2cccc(Cl)c2)n1Cc1ccco1 show?
-- reply 2 µM
